Molecular target: T1, GFP-9S library array, motif 4 ND D124F (synthetic construct, D124F)
T1 chain: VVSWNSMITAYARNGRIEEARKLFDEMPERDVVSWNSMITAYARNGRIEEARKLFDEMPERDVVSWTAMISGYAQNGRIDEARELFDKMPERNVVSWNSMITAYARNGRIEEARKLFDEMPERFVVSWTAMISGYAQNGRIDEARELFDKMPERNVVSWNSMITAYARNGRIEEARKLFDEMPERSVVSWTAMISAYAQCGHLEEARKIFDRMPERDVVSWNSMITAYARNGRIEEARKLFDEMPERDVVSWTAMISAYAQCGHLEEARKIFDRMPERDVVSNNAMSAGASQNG
Test: high-throughput RNA pulldown from lysate on Ni-NTA beads; HRP: 50 mM Tris pH 8, 150 mM NaCl, 1 mM beta-mercaptoethanol, 50 ug/ml BSA, 3 ug/ml yeast RNA, 0.5% heparin; ITC and FP: Tris pH 8, 200 mM KCl, 5% glycerol; MST: 50 mM Tris pH 8, 200 mM NaCl, 1 mM DTT, BSA, heparin, 0.05% Tween 20
Conditions: tags: N-terminal His-eGFP; label: 5' IRDye 800CW
endpoint-label: Kd (nM)
Field format: number, assumed nM, no unit text.

binder	Kd, nM
AUUAUACGUGA (ssRNA) [IR-rpoA-U]	63.9

Lab note: next binder to report on.
Query block: Entry AUUAAACGUGA (ssRNA) [IR-rpoA-A] : reported Kd = ?
Result block: 202

Data credit: paper PMC8809517
